The origin of these recorded values is paper PMC8395285.

# Lookup of reported melting point keyed by entry

Some solved cases for reference:
CC1SC(NC23CC4CC(CC(C4)C2)C3)=NC1=O (centres unmarked) | 265 to 267 °C
CCC1SC(NC23CC4CC(CC(C4)C2)C3)=NC1=O (centres unmarked) | 257 to 259 °C
CC1(C)SC(NC23CC4CC(CC(C4)C2)C3)=NC1=O | 208 to 210 °C

According to the records, this compound CC(C)C1SC(NC23CC4CC(CC(C4)C2)C3)=NC1=O (centres unmarked) displays melting point of 239 to 241 °C

According to the records, this compound O=C1CSC(NC23CC4CC(CC(C4)C2)C3)=N1 displays melting point of 271 to 273 °C

According to the records, this compound O=C1N=C(NC23CC4CC(CC(C4)C2)C3)SC12CCC2 displays melting point of 265 to 266 °C

According to the records, this compound CCCC1SC(NC23CC4CC(CC(C4)C2)C3)=NC1=O (centres unmarked) displays melting point of 247 to 249 °C

According to the records, this compound O=C1N=C(NC23CC4CC(CC(C4)C2)C3)SC12CCCCC2 displays melting point of 268 to 270 °C

====

target: 11β-HSD2 (Homo sapiens, UniProt P80365); construct: Human liver microsomes were used as a source of 11β-HSD2 enzyme; tissue XenoTech Lot No. 1710160; host or cells: human kidney microsomes, mixed gender (the method paragraph says human liver microsomes); experiment: Inhibition of 11β-HSD2 (cortisol to cortisone, human microsomes, cortisol ELISA); type: biochemical; details: 10 µM compound, 2.5 h at 37 °C
Sequence (P80365 whole entry): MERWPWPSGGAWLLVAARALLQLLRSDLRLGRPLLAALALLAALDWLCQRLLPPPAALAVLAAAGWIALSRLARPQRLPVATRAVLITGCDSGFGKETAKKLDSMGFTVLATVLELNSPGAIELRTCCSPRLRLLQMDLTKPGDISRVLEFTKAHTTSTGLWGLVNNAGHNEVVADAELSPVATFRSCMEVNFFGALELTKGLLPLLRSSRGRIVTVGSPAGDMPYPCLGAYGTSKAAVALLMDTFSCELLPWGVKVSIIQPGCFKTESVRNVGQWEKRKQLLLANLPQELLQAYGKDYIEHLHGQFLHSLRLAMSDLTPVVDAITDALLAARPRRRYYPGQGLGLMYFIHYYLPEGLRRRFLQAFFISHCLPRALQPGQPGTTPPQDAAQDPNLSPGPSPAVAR
QUANTITY_KIND: inhibition at 10 µM (%)

CC1SC(NC23CC4CC(CC(C4)C2)C3)=NC1=O (stereo not shown) | 44.7

P = O=C1N=C(NC23CC4CC(CC(C4)C2)C3)SC12CCC2
Q = O=C1N=C(NC23CC4CC(CC(C4)C2)C3)SC1c1ccccc1 (stereo not shown)
Of P and Q , which one carries the higher reported inhibition at 10 µM? To answer, give the label that identifies your chosen option.
P
(P: 41.4%, Q: 18.3%)

====

target: 11β-HSD1 (Homo sapiens, UniProt P28845); construct: Human liver microsomes were used as a source of 11β-HSD1 enzyme; tissue XenoTech Lot No.1410013; host or cells: pooled human liver microsomes, mixed gender; experiment: Inhibition of 11β-HSD1 (cortisone to cortisol, human liver microsomes, cortisol ELISA); type: biochemical; conditions: 10 µM compound, 2.5 h at 37 °C
Sequence (P28845 whole entry): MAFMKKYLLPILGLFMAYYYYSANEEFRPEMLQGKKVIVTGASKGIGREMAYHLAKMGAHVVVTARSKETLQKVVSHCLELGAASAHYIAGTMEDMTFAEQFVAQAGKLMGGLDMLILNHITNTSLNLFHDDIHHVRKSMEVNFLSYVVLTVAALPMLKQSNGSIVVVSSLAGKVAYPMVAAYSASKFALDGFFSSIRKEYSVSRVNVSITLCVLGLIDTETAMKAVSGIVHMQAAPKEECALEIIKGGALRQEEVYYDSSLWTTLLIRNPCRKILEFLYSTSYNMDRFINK
QUANTITY_KIND: inhibition at 10 µM (%)

CC1(C)SC(NC23CC4CC(CC(C4)C2)C3)=NC1=O [3f] | 66

1 = O=C1N=C(NC23CC4CC(CC(C4)C2)C3)SC12CCC2 [3j]
2 = O=C1CSC(NC23CC4CC(CC(C4)C2)C3)=N1 [3a, 2-(adamantan-1-ylamino)thiazol-4(5H)-one]
3 = O=C1N=C(NC23CC4CC(CC(C4)C2)C3)SC1c1ccccc1 (centres unmarked) [3g]
Order these by inhibition at 10 µM, descending, and give the full ranking. # output: labels, in the requested order
1, 3, 2
(1: 74.1%, 3: 46.3%, 2: 22.3%)

a = CCC1SC(NC23CC4CC(CC(C4)C2)C3)=NC1=O (centres unmarked) [3c]
b = O=C1N=C(NC23CC4CC(CC(C4)C2)C3)SC1c1ccc(Br)cc1 (centres unmarked) [3h]
Of a and b , which one carries the higher reported inhibition at 10 µM? To answer, give the label that identifies your chosen option.
a
(a: 69.2%, b: 15.3%)

====

target: 11β-HSD2 (Homo sapiens); construct: Human liver microsomes were used as a source of 11β-HSD2 enzyme; tissue XenoTech Lot No. 1710160; host or cells: human kidney microsomes, mixed gender (the method paragraph says human liver microsomes); assay: Inhibition of 11β-HSD2 (cortisol to cortisone, human microsomes, cortisol ELISA); assay type: biochemical; conditions: 10 µM compound, 2.5 h at 37 °C
QUANTITY_KIND: inhibition at 10 µM (%)

Some solved cases for reference:
CCCC1SC(NC23CC4CC(CC(C4)C2)C3)=NC1=O (stereo not drawn) | 28.9
CCC1SC(NC23CC4CC(CC(C4)C2)C3)=NC1=O (stereo not drawn) | 14.4
O=C1CSC(NC23CC4CC(CC(C4)C2)C3)=N1 | 29.8

1 = O=C1N=C(NC23CC4CC(CC(C4)C2)C3)SC1c1ccc(Br)cc1 (stereo not drawn)
2 = CC(C)C1SC(NC23CC4CC(CC(C4)C2)C3)=NC1=O (stereo not drawn)
3 = CC1(C)SC(NC23CC4CC(CC(C4)C2)C3)=NC1=O
Order these by inhibition at 10 µM, descending, and give the full ranking. # output: labels, in the requested order
1, 3, 2
(1: 41.8%, 3: 24.5%, 2: 16.4%)

====

biological target: 11β-HSD1 (Homo sapiens, UniProt P28845); construct: Human liver microsomes were used as a source of 11β-HSD1 enzyme; tissue XenoTech Lot No.1410013; host or cells: pooled human liver microsomes, mixed gender; experiment: Inhibition of 11β-HSD1 (cortisone to cortisol, human liver microsomes, cortisol ELISA); assay type: biochemical; settings: 10 µM compound, 2.5 h at 37 °C
QUANTITY_KIND: inhibition at 10 µM (%)

CC(C)C1SC(NC23CC4CC(CC(C4)C2)C3)=NC1=O (centres unmarked) [3e] | 76.4
CCCC1SC(NC23CC4CC(CC(C4)C2)C3)=NC1=O (centres unmarked) [3d] | 72.4
O=C1N=C(NC23CC4CC(CC(C4)C2)C3)SC12CCCCC2 [3i] | 82.8
CC1SC(NC23CC4CC(CC(C4)C2)C3)=NC1=O (centres unmarked) [3b] | 62.1
CC1(C)[C@@H](OC(=O)CCC(=O)O)CC[C@]2(C)[C@H]3C(=O)C=C4[C@@H]5C[C@@](C)(C(=O)O)CC[C@]5(C)CC[C@@]4(C)[C@]3(C)CC[C@@H]12 [carbenoxolone, reference compound] | 84.8
